Measured values drawn from ChEMBL document CHEMBL4364252 for this set.

system: PC-3; test: Antiproliferative activity against AR-negative human PC3 cells assessed as cell viability at 40 uM measured after 72 hrs by resazurin dye based fluorescence assay relative to control; type: functional; settings: PC-3, 72 h, read-out: Activity
endpoint: viability at 40 µM (%)
Answer with a number only, understood to be in %.

// below: answered compounds
INSERT INTO assay_data (compound, endpoint, measurement_unit, assay_result) VALUES
  ('COC(=O)c1nn2c(c1C(=O)OC)C[C@]1(C(C)=O)[C@@H](C[C@H]3[C@@H]4CCC5=CC(=O)CC[C@]5(C)[C@H]4CC[C@@]31C)C2', 'viability at 40 µM', '%', 94),
  ('COC(=O)c1cnn2c1C[C@]1(C(C)=O)[C@@H](C[C@H]3[C@@H]4CC=C5C[C@@H](O)CC[C@]5(C)[C@H]4CC[C@@]31C)C2', 'viability at 40 µM', '%', 89.6),
  ('CNC(=O)c1ccc(N2C(=S)N(c3ccc(C#N)c(C(F)(F)F)c3)C(=O)C2(C)C)cc1F [ENZALUTAMIDE]', 'viability at 40 µM', '%', 88.7);

Query: Provide viability at 40 µM value for the following compound: "COC(=O)c1cnn2c1C[C@]1(C(C)=O)[C@@H](C[C@H]3[C@@H]4CCC5=CC(=O)CC[C@]5(C)[C@H]4CC[C@@]31C)C2"
Reply: 98.3

----------
target: Androgen receptor (Homo sapiens); conditions: at 10 µM;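 note: human 22Rv1 prostate cells carrying an ARE14 reporter, AR activity judged by reduced PSA protein on immunoblot after 24 h exposure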
Description: Inhibition of AR transcriptional activity in AR-positive human 22Rv1 cells harboring ARE14 construct assessed as suppression of PSA expression at 10 uM after 24 hrs by immunoblot analysis
The source made the active and inactive calls. The calls are words filed in the database; no cut-off is given here.
Please state which outcome applies, choosing from active, inactive

INSERT INTO assay_data (sample_smiles, group) VALUES
  ('CC(=O)[C@@]12Cc3c(C(=O)O)cnn3C[C@@H]1C[C@H]1[C@@H]3CCC4=CC(=O)CC[C@]4(C)[C@H]3CC[C@@]12C', 'inactive');

Query: Write down the call the test reported for this compound. Item: "COC(=O)c1nn2c(c1C(=O)OC)C[C@]1(C(C)=O)[C@@H](C[C@H]3[C@@H]4CCC5=CC(=O)CC[C@]5(C)[C@H]4CC[C@@]31C)C2"
Reply: inactive

Query: Write down the call the test reported for this compound. Item: "COC(=O)c1nn2c(c1C(=O)OC)C[C@]1(C(C)=O)[C@@H](C[C@H]3[C@@H]4CC=C5C[C@@H](O)CC[C@]5(C)[C@H]4CC[C@@]31C)[C@H]2Cc1ccccc1"
Reply: inactive

----------
test system: PC-3; experiment: Antiproliferative activity against AR-negative human PC3 cells assessed as cell viability at 40 uM measured after 72 hrs by resazurin dye based fluorescence assay relative to control; assay type: functional; conditions: PC-3, 72 h, read-out: Activity
endpoint: viability at 40 µM

INSERT INTO measurements (sample_smiles, system, assay_result) VALUES
  ('C[C@@H](O)[C@@]12Cc3c(CO)c(CO)nn3[C@H](Cc3ccccc3)[C@@H]1C[C@H]1[C@@H]3CC=C4C[C@@H](O)CC[C@]4(C)[C@H]3CC[C@@]12C', 'PC-3', '> 100%'),
  ('COC(=O)c1nn2c(c1C(=O)OC)C[C@]1(C(C)=O)[C@@H](C[C@H]3[C@@H]4CC=C5C[C@@H](O)CC[C@]5(C)[C@H]4CC[C@@]31C)C2', 'PC-3', '71.7%'),
  ('COC(=O)c1nn2c(c1C(=O)OC)C[C@]1(C(C)=O)[C@@H](C[C@H]3[C@@H]4CC=C5C[C@@H](OC(C)=O)CC[C@]5(C)[C@H]4CC[C@@]31C)[C@H]2Cc1ccccc1', 'PC-3', '> 100%'),
  ('CC(=O)[C@@]12Cc3c(C(=O)O)cnn3C[C@@H]1C[C@H]1[C@@H]3CCC4=CC(=O)CC[C@]4(C)[C@H]3CC[C@@]12C', 'PC-3', '> 100%');

# ---- query compound ----
Query: Write down the reported viability at 40 µM (system: PC-3) of "COC(=O)c1nn2c(c1C(=O)OC)C[C@]1(C(C)=O)[C@@H](C[C@H]3[C@@H]4CC=C5C[C@@H](O)CC[C@]5(C)[C@H]4CC[C@@]31C)[C@H]2Cc1ccccc1"
Reply: 64.7%
